assay: RP-HPLC retention on IAM.PC.DD2 (immobilized artificial membrane) column, buffer pH 7.4-acetonitrile; assay type: physicochemical; settings: slope of Soczewiński-Wachtmeister equation, acetonitrile φ 0.2–0.5
Value type: s IAM

>  <Compound>
O=c1c(-c2ccccc2)nnc2n1CCN2c1cccc(Cl)c1 [Compound 38]

>  <s IAM>
5.41

$$$$
>  <Compound>
Cc1ccc(N2CCn3c2nnc(CCc2ccccc2)c3=O)cc1 [Compound 62]

>  <s IAM>
5.01

$$$$
>  <Compound>
O=c1c(CCc2ccccc2)nnc2n1CCN2c1ccc(Cl)cc1 [Compound 64]

>  <s IAM>
5.44

$$$$
>  <Compound>
Cc1ccc(N2CCn3c2nnc(Cc2ccccc2Cl)c3=O)cc1 [Compound 48]

>  <s IAM>
5.21

$$$$
>  <Compound>
Cc1ccc(N2CCn3c2nnc(Cc2cccc(Cl)c2)c3=O)cc1 [Compound 49]

>  <s IAM>
5.50

$$$$

Sourced from paper PMC7037052
